# Assay Overview: Half life in rat
# Assay type: ADME, organism-based
# Study Conditions: in vivo
Measured Attribute: half-life

query: // returns reported half-life for input CC(C)S(=O)(=O)N[C@H]1CN(C)CC1c1ccc(-c2ccc(C#N)cc2)cc1 (single isomer, unassigned)
result: > 2 h

###

# Experimental Target: Glutamate receptor 2 (Homo sapiens)
# Assay Overview: Positive modulation of human GluA2 flip receptor by FLIPR assay
Rule: EC50 below 4 µM gives condition met, anything at or above gives condition not met.

Before answering, review these 4 worked examples.
[
  {
    "Compound": "CC(C)S(=O)(=O)N[C@@H]1COCC1c1ccc(-c2ccc(C#N)cc2)cc1 (single isomer, unassigned)",
    "Experimental Target": "Glutamate receptor 2 (Homo sapiens)",
    "Assigned Label": "condition met"
  },
  {
    "Compound": "CC(C)S(=O)(=O)N[C@@H]1COCC1c1ccc(-c2cccs2)cc1 (single isomer, unassigned)",
    "Experimental Target": "Glutamate receptor 2 (Homo sapiens)",
    "Assigned Label": "condition met"
  },
  {
    "Compound": "CC(C)S(=O)(=O)N[C@H]1CN(C)CC1c1ccc(-c2ccc(F)nc2)cc1 (single isomer, unassigned)",
    "Experimental Target": "Glutamate receptor 2 (Homo sapiens)",
    "Assigned Label": "condition not met"
  },
  {
    "Compound": "CC(C)S(=O)(=O)N[C@H]1CN(C)CC1c1ccc(-c2cccc(C(F)(F)F)c2)cc1 (single isomer, unassigned)",
    "Experimental Target": "Glutamate receptor 2 (Homo sapiens)",
    "Assigned Label": "condition not met"
  }
]

With those in mind, consider the next compound.
query: # check: EC50 < 4 µM for CC(C)S(=O)(=O)N[C@H]1CN(C)CC1c1ccc(-c2cccc(S(C)(=O)=O)c2)cc1 (single isomer, unassigned)
result: condition not met

###

# Tested on: Liver microsomes
# Assay Overview: Intrinsic clearance in human liver microsomes
# Assay type: ADME, Microsome
Measured Attribute: CL (mL/min/g)
Write it as a number; the unit mL/min/g goes unstated.

Below: 2 compounds and their reported CL.
[
  {
    "Compound": "CCN1CC(c2ccc(-c3ccc(C#N)cc3)cc2)[C@@H](NS(=O)(=O)C(C)C)C1 (single isomer, unassigned)",
    "CL / mL/min/g": 1.2
  },
  {
    "Compound": "CC(C)S(=O)(=O)N[C@H]1CN(C)CC1c1ccc(-c2ccc(F)nc2)cc1 (single isomer, unassigned)",
    "CL / mL/min/g": 0.8
  }
]

query: Give the measured CL of CC(C)S(=O)(=O)N[C@@H]1COCC1c1ccc(-c2cncc(F)c2)cc1 (single isomer, unassigned) .
result: 0.6

###

Here, each record is paired with measured CL data.
# System: Liver microsomes
# Assay Overview: Intrinsic clearance in human liver microsomes
# Format: ADME, Microsome
Give your result as the value with the unit written after it.

// known answers, use as guide
[
  {
    "Compound": "CC(C)S(=O)(=O)N[C@@H]1COCC1c1ccc(-c2ccc(F)cn2)cc1 (single isomer, unassigned)",
    "Observed": "0.8 mL/min/g"
  },
  {
    "Compound": "CC(C)N1CC(c2ccc(-c3cccc(NS(C)(=O)=O)c3)cc2)[C@@H](NS(=O)(=O)C(C)C)C1 (single isomer, unassigned)",
    "Observed": "0.7 mL/min/g"
  },
  {
    "Compound": "CC(C)S(=O)(=O)N[C@H]1CN(C)CC1c1ccc(-c2ccc(C#N)cc2)cc1 (single isomer, unassigned)",
    "Observed": "0.8 mL/min/g"
  }
]

query: Give its CL value. Item: CCN1CC(c2ccc(-c3cccc(NS(C)(=O)=O)c3)cc2)[C@@H](NS(=O)(=O)C(C)C)C1 (single isomer, unassigned)
result: 0.7 mL/min/g

###

# Experimental Target: Glutamate receptor 2 (Homo sapiens)
# Assay Overview: Positive modulation of human GluA2 flip receptor by FLIPR assay relative to cyclothiazide
# Set-up: concentration or dose not given beside the values
Entries and their Activity values follow.
The figure you give is taken to be in %; do not add the unit.

Example entries and their recorded answers appear below.
[
  {
    "Compound": "CC(C)S(=O)(=O)N[C@H]1CN(c2ccccc2)CC1c1ccc(-c2ccc(F)nc2)cc1 (single isomer, unassigned)",
    "Measured Attribute": "Activity",
    "Measure Unit": "%",
    "Observed": 74
  },
  {
    "Compound": "CC(C)S(=O)(=O)N[C@H]1CN(c2ccccc2)CC1c1ccc(-c2ccc(C#N)cc2)cc1 (single isomer, unassigned)",
    "Measured Attribute": "Activity",
    "Measure Unit": "%",
    "Observed": 48
  },
  {
    "Compound": "CC(C)S(=O)(=O)N[C@H]1CN(C)CC1c1ccc(-c2cccnc2F)cc1 (single isomer, unassigned)",
    "Measured Attribute": "Activity",
    "Measure Unit": "%",
    "Observed": 101
  },
  {
    "Compound": "CC(C)S(=O)(=O)N[C@@H]1COCC1c1ccc(-c2ccc(C#N)cc2)cc1 (single isomer, unassigned)",
    "Measured Attribute": "Activity",
    "Measure Unit": "%",
    "Observed": 112
  },
  {
    "Compound": "CC(C)S(=O)(=O)N[C@H]1CN(C)CC1c1ccc(-c2cccs2)cc1 (single isomer, unassigned)",
    "Measured Attribute": "Activity",
    "Measure Unit": "%",
    "Observed": 29
  }
]

Would you kindly look at the next entry?
query: What does the record list as Activity for CC(C)S(=O)(=O)N[C@H]1CN(C)CC1c1ccc(-c2ccc(C#N)cc2)cc1 (single isomer, unassigned) ?
result: 109

###

# Assay Overview: Ratio of drug level in brain to blood in rat
Measured Attribute: Kp
Reply briefly: the number, and no unit.

query: What value of Kp has been recorded for this entry: CC(C)S(=O)(=O)N[C@H]1CN(C)CC1c1ccc(-c2ccc(C#N)cc2)cc1 (single isomer, unassigned)
result: 1.8

###

# Experimental Target: Glutamate receptor 2 (Homo sapiens, UniProt P42262)
# Sequence (P42262 whole entry): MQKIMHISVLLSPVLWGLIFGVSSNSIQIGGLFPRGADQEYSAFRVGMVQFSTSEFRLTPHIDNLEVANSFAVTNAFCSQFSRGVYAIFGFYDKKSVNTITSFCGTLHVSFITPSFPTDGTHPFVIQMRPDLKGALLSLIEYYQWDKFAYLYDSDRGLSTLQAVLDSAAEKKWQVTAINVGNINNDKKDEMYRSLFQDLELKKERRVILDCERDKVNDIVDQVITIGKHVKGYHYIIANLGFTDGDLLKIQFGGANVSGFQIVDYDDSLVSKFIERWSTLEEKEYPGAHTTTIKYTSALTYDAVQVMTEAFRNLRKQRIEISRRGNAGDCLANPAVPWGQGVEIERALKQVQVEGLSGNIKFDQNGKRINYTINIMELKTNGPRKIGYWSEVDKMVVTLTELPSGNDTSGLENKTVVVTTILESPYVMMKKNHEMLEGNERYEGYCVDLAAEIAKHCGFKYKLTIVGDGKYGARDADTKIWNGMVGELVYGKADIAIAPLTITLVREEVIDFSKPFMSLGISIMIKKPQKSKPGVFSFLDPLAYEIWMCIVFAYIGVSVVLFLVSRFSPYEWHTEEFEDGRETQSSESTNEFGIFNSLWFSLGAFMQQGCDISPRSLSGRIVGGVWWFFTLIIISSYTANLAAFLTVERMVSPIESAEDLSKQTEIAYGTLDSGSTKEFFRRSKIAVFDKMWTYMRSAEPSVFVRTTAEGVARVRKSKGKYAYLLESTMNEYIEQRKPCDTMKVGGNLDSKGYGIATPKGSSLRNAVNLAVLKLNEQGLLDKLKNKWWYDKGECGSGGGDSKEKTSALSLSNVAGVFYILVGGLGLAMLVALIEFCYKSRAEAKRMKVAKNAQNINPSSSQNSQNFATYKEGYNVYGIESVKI
# Assay Overview: Positive modulation of human GluA2 flip receptor by FLIPR assay
Measured Attribute: pEC50
Expect pEC50 as a plain number equal to -log10 of the molar concentration.

[
  {
    "Compound": "CC(=O)c1cccc(-c2ccc(C3CN(C)C[C@@H]3NS(=O)(=O)C(C)C)cc2)c1 (single isomer, unassigned)",
    "Experimental Target": "Glutamate receptor 2 (Homo sapiens, UniProt P42262)",
    "pEC50": 5.20
  },
  {
    "Compound": "CC(C)S(=O)(=O)N[C@H]1CN(C)CC1c1ccc(-c2cccs2)cc1 (single isomer, unassigned)",
    "Experimental Target": "Glutamate receptor 2 (Homo sapiens, UniProt P42262)",
    "pEC50": 4.70
  },
  {
    "Compound": "CC(C)S(=O)(=O)N[C@H]1CN(C)CC1c1ccc(-c2ccsc2)cc1 (single isomer, unassigned)",
    "Experimental Target": "Glutamate receptor 2 (Homo sapiens, UniProt P42262)",
    "pEC50": 5.49
  },
  {
    "Compound": "CC(C)S(=O)(=O)N[C@@H]1COCC1c1ccc(-c2cncc(F)c2)cc1 (single isomer, unassigned)",
    "Experimental Target": "Glutamate receptor 2 (Homo sapiens, UniProt P42262)",
    "pEC50": 6.52
  },
  {
    "Compound": "CC(=O)Nc1cccc(-c2ccc(C3CN(C)C[C@@H]3NS(=O)(=O)C(C)C)cc2)c1 (single isomer, unassigned)",
    "Experimental Target": "Glutamate receptor 2 (Homo sapiens, UniProt P42262)",
    "pEC50": 5.40
  },
  {
    "Compound": "CC(C)S(=O)(=O)N[C@H]1CN(C)CC1c1ccc(-c2cccnc2F)cc1 (single isomer, unassigned)",
    "Experimental Target": "Glutamate receptor 2 (Homo sapiens, UniProt P42262)",
    "pEC50": 5.60
  }
]

query: Would you kindly share the measured pEC50 for CCN1CC(c2ccc(-c3ccc(C#N)cc3)cc2)[C@@H](NS(=O)(=O)C(C)C)C1 (single isomer, unassigned) ?
result: 5.10

###

Parameter: pEC50. Scope: all listed entries.
# Experimental Target: Glutamate receptor 2 (Homo sapiens, UniProt P42262)
# Assay Overview: Positive modulation of human GluA2 flip receptor by FLIPR assay
As a rule, pEC50 stands for the negative log10 of the concentration, concentration in M.

Worked set:
[
  {
    "Compound": "CC(C)S(=O)(=O)N[C@@H]1COCC1c1ccc(-c2ccc(F)nc2)cc1 (single isomer, unassigned)",
    "pEC50": 6.52
  },
  {
    "Compound": "CC(C)S(=O)(=O)N[C@@H]1COCC1c1ccc(-c2ccc(F)cn2)cc1 (single isomer, unassigned)",
    "pEC50": 6.52
  },
  {
    "Compound": "CC(C)N1CC(c2ccc(-c3ccc(C#N)cc3)cc2)[C@@H](NS(=O)(=O)C(C)C)C1 (single isomer, unassigned)",
    "pEC50": 4.70
  },
  {
    "Compound": "CC(=O)c1cccc(-c2ccc(C3COC[C@H]3NS(=O)(=O)C(C)C)cc2)c1 (single isomer, unassigned)",
    "pEC50": 7.00
  },
  {
    "Compound": "CC(C)S(=O)(=O)N[C@H]1CN(c2ccccc2)CC1c1ccc(-c2ccc(C#N)cc2)cc1 (single isomer, unassigned)",
    "pEC50": 5.21
  },
  {
    "Compound": "CC(C)S(=O)(=O)N[C@@H]1COCC1c1ccc(-c2ccsc2)cc1 (single isomer, unassigned)",
    "pEC50": 6.40
  },
  {
    "Compound": "CC(C)S(=O)(=O)N[C@H]1CN(C)CC1c1ccc(-c2ccc(C#N)cc2)cc1 (single isomer, unassigned)",
    "pEC50": 5.30
  },
  {
    "Compound": "CC(C)S(=O)(=O)N[C@H]1CN(C)CC1c1ccc(-c2cccc(NS(C)(=O)=O)c2)cc1 (single isomer, unassigned)",
    "pEC50": 6.52
  },
  {
    "Compound": "CCN1CC(c2ccc(-c3cccc(NS(C)(=O)=O)c3)cc2)[C@@H](NS(=O)(=O)C(C)C)C1 (single isomer, unassigned)",
    "pEC50": 5.80
  },
  {
    "Compound": "CC(C)S(=O)(=O)N[C@H]1CN(c2ccccc2)CC1c1ccc(-c2cccc(NS(C)(=O)=O)c2)cc1 (single isomer, unassigned)",
    "pEC50": 5.30
  }
]

Then there is this compound:
query: Consider the compound shown here: CC(C)S(=O)(=O)N[C@H]1CN(C)CC1c1ccc(-c2ccccc2F)cc1 (single isomer, unassigned) What is its recorded pEC50?
result: 5.60

The measurements presented in this section are drawn from ChEMBL document CHEMBL1287696.
